assay: AUC (0 to infinity) in BALB/c mouse plasma at 10 mg/kg, po up to 24 hrs by LC-MS/MS analysis; type: ADME, organism-based; design: dose 10 mg/kg, time infinity, route oral
resultType: AUC(0-inf) (ng·h/mL)
One number for each entry, in ng·h/mL.

Prompt line: Fill in: AUC(0-inf) of `CCOP(=O)(OCC)C(=Cc1ccccc1)P(=O)(OCC)OCC` is ___
Response line: 2070

###

biological target: Nuclear receptor subfamily 1 group I member 2 (Homo sapiens, UniProt O75469); experiment: Activation of PXR in human LS180 cells assessed as P-gp induction by measuring intracellular accumulation of rhodamine 123 per ug of total protein at 5 uM preincubated for 48 hrs followed by rhodamine 123 addition after 40 mins and measured after 90 mins by fluorescence assay relative to control; format: cell-based; settings: 1.5 h
Sequence (O75469 whole entry): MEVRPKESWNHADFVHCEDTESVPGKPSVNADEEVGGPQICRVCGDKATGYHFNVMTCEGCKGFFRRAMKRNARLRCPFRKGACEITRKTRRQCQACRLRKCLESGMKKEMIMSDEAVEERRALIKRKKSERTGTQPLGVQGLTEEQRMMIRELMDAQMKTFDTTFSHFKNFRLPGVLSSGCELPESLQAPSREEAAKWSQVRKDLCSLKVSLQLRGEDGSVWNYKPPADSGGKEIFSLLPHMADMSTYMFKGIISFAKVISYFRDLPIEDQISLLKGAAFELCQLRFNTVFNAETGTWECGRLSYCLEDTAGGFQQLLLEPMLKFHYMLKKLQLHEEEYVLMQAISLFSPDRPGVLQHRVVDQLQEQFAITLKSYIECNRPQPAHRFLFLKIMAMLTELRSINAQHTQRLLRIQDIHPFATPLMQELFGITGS
The following ranges of Activity define the classes used here: lower = under 70%, middle = from 70% up to 80%, upper = 80% and over

Worked examples follow.
COc1cc(C=C(P(=O)(OC(C)C)OC(C)C)P(=O)(OC(C)C)OC(C)C)cc(OC)c1 = middle
CCOP(=O)(/C=C/c1cc(F)cc(F)c1)OCC = upper

Note: attention shifts to another entry.
Prompt line: Kindly state the category for this compound: `CC(C)OP(=O)(OC(C)C)C(=Cc1cc(C(C)(C)C)c(O)c(C(C)(C)C)c1)P(=O)(OC(C)C)OC(C)C`
Response line: lower

###

assay: Thermodynamic aqueous solubility of the compound in simulated intestinal fluid at pH 6.8 after overnight incubation; type: physicochemical; details: read-out: Therm_solubility
Would you mind telling me the reported solubility thermodynamic of each entry?
One number for each entry, in µg/mL.

CCOP(=O)(OCC)C(=Cc1ccccc1)P(=O)(OCC)OCC = 40

Now for another entry.
Prompt line: Fill in: solubility thermodynamic of `CCOP(=O)(OCC)C(=Cc1cc(C(C)(C)C)c(O)c(C(C)(C)C)c1)P(=O)(OCC)OCC` is ___
Response line: 200

###

assay: Cmax in BALB/c mouse plasma at 1 mg/kg, iv up to 24 hrs by LC-MS/MS analysis; assay type: ADME, organism-based; design: dose 1 mg/kg, route intravenous
resultType: Cmax
Returns: string containing the numeric result and its unit.

Prompt line: Fill in: Cmax of `CCOP(=O)(OCC)C(=Cc1ccccc1)P(=O)(OCC)OCC` is ___
Response line: 811 ng/mL

###

Would you mind telling me the reported viability at 24 h, 30 µM of each entry?
assay: Cytotoxicity against human LS180 cells assessed as cell viability at 30 uM after 24 hrs by MTT assay relative to control; type: cell-based; details: read-out: Activity
One number for each entry, in %.

Reference set, count: 5
COc1cc(C=C(P(=O)(OC(C)C)OC(C)C)P(=O)(OC(C)C)OC(C)C)ccc1F = 86
CCOP(=O)(/C=C/c1ccc(F)c(Br)c1)OCC = 100
CC(C)OP(=O)(OC(C)C)C(=Cc1ccc2c(c1)OCO2)P(=O)(OC(C)C)OC(C)C = 100
CCOP(=O)(OCC)C(Nc1ccccc1)c1ccc(Cl)cc1 (stereo unspecified) = 100
CCOP(=O)(OCC)C(=Cc1cccc2ccccc12)P(=O)(OCC)OCC = 100

Below is a list of compounds. For each, state its recorded viability at 24 h, 30 µM.
1. CCOP(=O)(OCC)C(Nc1ccccc1)c1ccccc1 (stereo unspecified)
2. CC(C)OP(=O)(OC(C)C)C(=Cc1ccc([N+](=O)[O-])o1)P(=O)(OC(C)C)OC(C)C
3. CCOP(=O)(/C=C/c1ccc(OC)c(Br)c1)OCC

Response line:
100
41
100
